All values here come from PubChem BioAssay AID1220.

biological target: Mannose-6-phosphate isomerase (Homo sapiens); experiment: MPI inhibition at elevated mannose 6-phosphate – biochemical, fluorescence intensity, high mannose 6-phosphate, primary screen (AID 1220); settings: recombinant PMI enzyme, coupled fluorescence intensity; at 20 µM; stronger effect = higher value
Hit rate of the full screen: of about 190,000 compounds, about 1,300 (0.68%) were called active. The sample as a whole holds a higher share of actives than the screen did.
Metric name: inhibition (%)
Write down the numeric answer in % and omit the unit.

| Molecule | Readout value |
| --- | --- |
| Cc1cc(N2CCN(c3ccccc3)CC2)nc(-c2ccccc2O)n1 | 2.1 |

Read the next record carefully.
### Prompt For the molecule CCO[C@@H]1OC(C(=O)NCc2ccccc2)=C[C@H](C2CC2)[C@H]1CCCO , what inhibition is on record?
### Response -7.4

* * *

target: Mannose-6-phosphate isomerase (Homo sapiens) (UniProt P34949); assay: MPI inhibition at elevated mannose 6-phosphate – biochemical, fluorescence intensity, high mannose 6-phosphate, primary screen (AID 1220); conditions: recombinant PMI enzyme, coupled fluorescence intensity; at 20 µM; stronger effect = higher value
Sequence (P34949 whole entry, looked up): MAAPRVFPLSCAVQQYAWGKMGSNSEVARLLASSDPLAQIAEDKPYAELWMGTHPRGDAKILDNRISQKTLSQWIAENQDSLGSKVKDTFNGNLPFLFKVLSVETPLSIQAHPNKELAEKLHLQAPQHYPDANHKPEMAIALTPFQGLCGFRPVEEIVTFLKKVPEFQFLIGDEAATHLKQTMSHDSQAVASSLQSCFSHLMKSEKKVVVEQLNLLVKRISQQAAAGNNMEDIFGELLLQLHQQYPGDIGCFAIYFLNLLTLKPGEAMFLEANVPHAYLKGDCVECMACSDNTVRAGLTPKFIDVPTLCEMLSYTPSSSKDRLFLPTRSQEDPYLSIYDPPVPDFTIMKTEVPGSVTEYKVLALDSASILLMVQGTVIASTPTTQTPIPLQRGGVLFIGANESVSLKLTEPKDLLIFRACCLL
The campaign covered roughly 190,000 compounds. About 1,300 (0.68%) were called active. Shown is part of a subset that was picked to be rich in actives.
Entries and their inhibition
Write down the numeric answer in % and omit the unit.

| Compound | Endpoint unit | inhibition |
| --- | --- | --- |
| Cc1nc(-c2ccccc2)cn(O)c1=O | % | 65.6 |
| COc1ccc(C(=O)O/N=C(/C)c2cccs2)cc1 | % | -4.4 |
| O=c1c2ccccc2nc(-c2cccs2)n1-c1cccc2ccccc12 | % | -3.7 |
| COc1ccc(NC(=S)N(CCN2CCOCC2)Cc2cc3cc4c(cc3[nH]c2=O)OCO4)cc1 | % | 14.7 |
| O=c1c2ccccc2nc(-c2ccccc2Cl)n1O | % | -7.6 |
| CCOc1ccc(NC(=S)N(CCN2CCOCC2)Cc2cc3cc4c(cc3[nH]c2=O)OCCO4)cc1 | % | 24.8 |
| CCOC(=O)CNC(=O)CSc1nnc(-c2ccco2)n1N | % | 6.3 |
| COc1cccc(C2CC(c3ccc(C(C)C)cc3)n3nc(N)nc3N2)c1 (configuration not stated) | % | 11.2 |
| O=c1c(-c2ccccc2)nc(-c2ccccc2)cn1O | % | 3.4 |
| CCOC(=O)C(Cc1ccc(Cl)cc1Cl)c1ccno1 (configuration not stated) | % | 0.3 |

### Prompt For the compound CC(=O)N1C(C)(C)CC(=NOS(=O)(=O)c2ccccc2)CC1(C)C , what inhibition is on record?
### Response -21.1

### Prompt For the compound CC(C)N1CCN(Cc2ccoc2)CC1CCO (configuration not stated) , what inhibition is on record?
### Response -6.7

* * *

target: Mannose-6-phosphate isomerase (Homo sapiens); assay: MPI inhibition at elevated mannose 6-phosphate – biochemical, fluorescence intensity, high mannose 6-phosphate, primary screen (AID 1220); settings: recombinant PMI enzyme, coupled fluorescence intensity; at 20 µM
The campaign covered roughly 190,000 compounds. About 1,300 (0.68%) were called active. Rule as the data show it: active = inhibition above about 50%; inactive = the rest. This excerpt belongs to a sample that is enriched for actives.
// one of true (1) (active), false (0) (inactive), no free text

| Molecule | Cat |
| --- | --- |
| O=C(c1cc(F)c(F)cc1Cl)N1CCN(c2ccc([N+](=O)[O-])c3ncccc23)CC1 | false (0) |

### Prompt Hi team, can someone confirm the assay call for CC1C2CC(C(S(=O)(=O)N3CCOCC3)C2=O)C1(C)C (stereo not drawn) ?
### Response false (0)

### Prompt Hi team, can someone confirm the assay call for COc1ccccc1NC(=O)Nc1nc(C(C)(C)C)cs1 ?
### Response true (1)

### Prompt Hi team, can someone confirm the assay call for CCOC(=O)c1nc(C)n(-c2cc(OC)c(Cl)cc2Cl)n1 ?
### Response false (0)

### Prompt Hi team, can someone confirm the assay call for C=CCNc1nc(-c2c(C)nc3sccn23)cs1 ?
### Response true (1)

### Prompt Hi team, can someone confirm the assay call for COc1ccc(C(=O)N(CN2CCCC2=O)c2ccccc2OC)cc1OC ?
### Response false (0)

### Prompt Hi team, can someone confirm the assay call for O=[N+]([O-])c1ccc(N2CCN(CCO)CC2)c2ncccc12 ?
### Response true (1)

### Prompt Hi team, can someone confirm the assay call for COc1cc(C(c2oc(CO)cc(=O)c2O)c2oc(CO)cc(=O)c2O)cc(OC)c1OC ?
### Response false (0)

### Prompt Hi team, can someone confirm the assay call for CN1CCN(S(=O)(=O)c2ccc(NC(=O)c3csc4ccccc34)cc2)CC1 ?
### Response false (0)

### Prompt Hi team, can someone confirm the assay call for COc1ccccc1NC(=O)Nc1cc(NC(=O)Nc2ccccc2OC)c(C)nc1C ?
### Response false (0)

### Prompt Hi team, can someone confirm the assay call for CC(C)c1ccc(NC(=O)COc2ccccn2)cc1 ?
### Response false (0)

### Prompt Hi team, can someone confirm the assay call for Cc1cc(N2CCN(c3ccc([N+](=O)[O-])c4cccnc34)CC2)c2ccccc2n1 ?
### Response false (0)

### Prompt Hi team, can someone confirm the assay call for Cc1ccc(C(=O)OCC(=O)Nc2ccccc2)cc1NC(=O)c1ccco1 ?
### Response false (0)

### Prompt Hi team, can someone confirm the assay call for Cc1nc2sccn2c1-c1csc(NCc2ccccc2)n1 ?
### Response false (0)

### Prompt Hi team, can someone confirm the assay call for CCCCNc1nc(CC)c2c(c1C#N)CCCC2 ?
### Response false (0)

* * *

molecular target: Mannose-6-phosphate isomerase (Homo sapiens) (UniProt P34949); test: MPI inhibition at elevated mannose 6-phosphate – biochemical, fluorescence intensity, high mannose 6-phosphate, primary screen (AID 1220); conditions: recombinant PMI enzyme, coupled fluorescence intensity; at 20 µM; stronger effect = higher value
The campaign covered roughly 190,000 compounds. About 1,300 (0.68%) were called active. The entries come from a sample that favours actives as a whole.
Entries and their inhibition

| Molecule | inhibition |
| --- | --- |
| CC1CCC(C(C)C)C(OCC[N+](C)(C)C)C1 (configuration not stated) | 8.9% (inactive) |
| CC(C)CC(=O)NC(=S)Nc1ccccn1 | -9.5% (inactive) |
| CCC(C)(C)n1nnnc1C(c1ccncc1)N1CCC(C)CC1 (configuration not stated) | -5.6% (inactive) |
| CCCCNC(=O)N(C)c1nc2ccccc2s1 | -3.1% (inactive) |
| NCCN=C1NS(=O)(=O)c2ccccc21 | 7.4% (inactive) |

### Prompt For the molecule Cc1cc(C)n(C(=O)CCCCCC(=O)n2nc(C)cc2C)n1 , what inhibition is on record?
### Response -6.2% (inactive)

### Prompt For the molecule Cc1ccc2c(c1)-c1ccccc1S(=O)(=O)N2 , what inhibition is on record?
### Response -0.5% (inactive)

* * *

biological target: Mannose-6-phosphate isomerase (Homo sapiens) (UniProt P34949); experiment: MPI inhibition at elevated mannose 6-phosphate – biochemical, fluorescence intensity, high mannose 6-phosphate, primary screen (AID 1220); conditions: recombinant PMI enzyme, coupled fluorescence intensity; at 20 µM; stronger effect = higher value
The whole screen tested about 190,000 compounds, of which about 1,300 (0.68%) were called active. The entries come from a sample that favours actives as a whole.
Metric name: inhibition (%)
Write down the numeric answer in % and omit the unit.

| Compound | Endpoint unit | Readout value |
| --- | --- | --- |
| Cc1cc(=O)oc(C)c1C(=O)OCC(=O)c1ccc2ccccc2c1 | % | -11.8 |
| Fc1ccccc1-c1nc2ccccc2[nH]1 | % | -1.9 |
| COC(=O)c1ccncc1N | % | 8.9 |
| CC1Cc2cc(/C(O)=C3/C(=O)C(=O)N(CCCn4ccnc4)C3c3ccncc3)ccc2O1 (stereo unspecified) | % | -10.1 |
| Cc1ccc(C(=O)COC(=O)c2c(C)cc(=O)oc2C)cc1[N+](=O)[O-] | % | 58.1 |

### Prompt Field: inhibition (Mannose-6-phosphate isomerase (Homo sapiens) (UniProt P34949)). Entry: CC1Cc2cc(/C(O)=C3/C(=O)C(=O)N(CCCn4ccnc4)C3c3cccnc3)ccc2O1 (stereo unspecified)
### Response 3.7

### Prompt Field: inhibition (Mannose-6-phosphate isomerase (Homo sapiens) (UniProt P34949)). Entry: Cc1ccc(CN(Cc2ccco2)C(=S)Nc2ccccc2C)cc1
### Response 8.6

### Prompt Field: inhibition (Mannose-6-phosphate isomerase (Homo sapiens) (UniProt P34949)). Entry: Nc1cnccc1C(=O)O
### Response 63.7

### Prompt Field: inhibition (Mannose-6-phosphate isomerase (Homo sapiens) (UniProt P34949)). Entry: COc1ccc(C(=O)NCc2ccc(Cl)c(Cl)c2)cc1OC
### Response -0.1

### Prompt Field: inhibition (Mannose-6-phosphate isomerase (Homo sapiens) (UniProt P34949)). Entry: Cc1ccc(NC(=O)c2cc(C)n(-c3ccccc3)c2C)cc1
### Response 9.3

### Prompt Field: inhibition (Mannose-6-phosphate isomerase (Homo sapiens) (UniProt P34949)). Entry: O=C1NC(Cc2ccccc2)C(=O)N1Cc1cc([N+](=O)[O-])cc2c1OCOC2 (stereo unspecified)
### Response -4.9
